Reference source for all entries: PubChem BioAssay (NCI)

Test system: EKVX NSCLC
EXPERIMENTAL_DETAILS: NCI tumour cell line growth inhibition, 48 h
Below: a set of entries, each annotated with reported TGI.

Look up TGI for this compound: COc1cccc(C2c3cc4c(cc3OC(O)C2C)OCO4)c1OC (centres undefined)
78.7 µM

Look up TGI for this compound: "Cn1nccc1Nc1nccc(-c2ccn([C@H](CO)c3ccc(Cl)c(F)c3)c(=O)c2)n1"
> 100 µM

Look up TGI for this compound: "CN(C)c1nc(Oc2nc(N(C)C)nc(N(C)C)n2)nc(N(C)C)n1"
> 100 µM

Look up TGI for this compound: "O=C1C=C[C@H](O)[C@@]2(CO)O[C@@H]12"
49.9 µM

Look up TGI for this compound: "COc1ccc(N=Nc2c(-c3c(OC)cc4occc4c3OC)[nH]c(=O)c(C#N)c2C)cc1"
> 100 µM

Look up TGI for this compound: O=C(CC(NC(=O)C(F)(F)F)C(=O)O)OCc1ccccc1 (centres undefined)
> 100 µM

Look up TGI for this compound: "O=c1oc2ccccc2c(O)c1Cc1ccc(Cc2c(O)c3ccccc3oc2=O)cc1"
> 100 µM

Look up TGI for this compound: COc1cc2oc(-c3ccc(O)cc3)cc(=O)c2c(O)c1C1OC(CO)C(O)C(O)C1O (centres undefined)
> 100 µM

Look up TGI for this compound: "CC(C)NC(=O)OCc1c(COC(=O)NC(C)C)n(C)c2c1ccc1sccc12"
34.1 µM

###

Below: a set of entries, each annotated with reported TGI.
System: HCT-15 colon
EXPERIMENTAL_DETAILS: NCI tumour cell line growth inhibition, 48 h

MOLECULE	VAL
[N-]=[N+]=CC(=O)C1CCCN1C(=O)c1ccccc1 (centres undefined)	> 10 µM

Okay, next one:
Look up TGI for this molecule: "Cn1c([N+](=O)[O-])cnc1C=C1C(=O)c2ccccc2C1=O"
6.77 µM

###

Tested on: HT29 colon
EXPERIMENTAL_DETAILS: NCI tumour cell line growth inhibition, 48 h
RESULT_TYPE: TGI

The examples below pair each entry with its known result.
COMPOUND	VAL
COc1nc2c(c(O)c(C)c(=O)n2OC2OCC(OC(C)=O)C(OC(C)=O)C2OC(C)=O)c(=O)n1C (stereo unspecified)	> 100 µM
CC1=NN(C(=O)Cc2ccccc2)C(=O)/C1=C\c1ccc(O)cc1	> 100 µM
O=C1NN(C2=NNC3(C(=O)N2)c2ccccc2-c2ccccc23)C(c2ccccc2)=N/C1=C/c1ccc(Cl)cc1	> 150 µg/mL
C[C@]12CC[C@H]3[C@@H](CCC4=CC(=O)CC[C@@]43C)[C@@H]1CC[C@@H]2c1csc(N)n1	18.3 µM
O=[N+]([O-])c1ccc(Cl)c2c([N+](=O)[O-])cccc12	> 10 µM

Look up TGI for this compound: CCOC1C=CC(=O)C(CO)O1 (stereo unspecified)
25.4 µM

Look up TGI for this compound: "Cc1cccc(NC(=O)c2sc3nc4c(cc3c2N)C(=O)CCC4)c1"
> 20.1 µM

###

Test system: KM12 colon
EXPERIMENTAL_DETAILS: NCI tumour cell line growth inhibition, 48 h
RESULT_TYPE: TGI

COMPOUND	TGI
CCc1cccc(C)c1NC(=O)CCc1nc(=S)[nH][nH]1	> 100 µM
Cc1ccc(S(=O)(=O)OCC/C(=C\[Si](C)(C)C)c2ccccc2)cc1	> 100 µM
COc1ccc2nc(NC(=O)/C(C#N)=C/c3ccccc3)sc2c1	> 73.3 µM

Missing value: TGI, KM12 colon, entry "Cc1c(N2CCOCC2)nc2ccc(Cl)cc2c1-c1ccccc1" . Fill in?
> 100 µM

Missing value: TGI, KM12 colon, entry CN(C)C(=O)C(F)(F)C(c1ccc(F)cc1)C1C(=O)N(C)C(=O)N(C)C1=O (stereo not given) . Fill in?
> 100 µM
